# credit: ChEMBL document CHEMBL3988442

# target or test system: Tyrosyl-tRNA synthetase, putative (Trypanosoma cruzi (strain CL Brener))
# protocol details: Trypanosoma cruzi tyrosyl tRNA synthetase (TcYRS) _High Tyrosine SOP
# Type: functional
# Set-up: scale not given: in the data most compounds retested in dose-response had high values
# measurement conditions: 30 µM
Entries get a class label from measured Percent Effect. See ranges: lower range: < 3%; middle range: ≥ 3% and < 6%; upper range: ≥ 6%

compound: CCC(=O)Nc1nnc(CCOc2cccc(OC)c2)s1
target or test system: Tyrosyl-tRNA synthetase, putative (Trypanosoma cruzi (strain CL Brener))
class name: lower range
--
compound: Cn1cc(C(=O)N[C@@H]2CN(Cc3cccs3)[C@@H]3CCCO[C@@H]32)cn1
target or test system: Tyrosyl-tRNA synthetase, putative (Trypanosoma cruzi (strain CL Brener))
class name: lower range
--
compound: Cn1nnc2c1CCN(CC1CC1)C2COCc1ccccc1 (configuration not stated)
target or test system: Tyrosyl-tRNA synthetase, putative (Trypanosoma cruzi (strain CL Brener))
class name: upper range
--
compound: CCc1ccccc1-n1nnc(C(=O)O)c1-c1ccccn1
target or test system: Tyrosyl-tRNA synthetase, putative (Trypanosoma cruzi (strain CL Brener))
class name: middle range
--
compound: CCc1cnc(N2C[C@H]3C[C@H](C(=O)N(C)C)[C@@H](C2)O3)nc1
target or test system: Tyrosyl-tRNA synthetase, putative (Trypanosoma cruzi (strain CL Brener))
class name: middle range
--
compound: Cc1cc(O)c(OCC(=O)/N=c2\[nH]cc(C)s2)cn1
target or test system: Tyrosyl-tRNA synthetase, putative (Trypanosoma cruzi (strain CL Brener))
class name: middle range
--
compound: CCc1c(C(=O)NCC(=O)OCC2CC2)cnn1-c1ccc(C)cc1
target or test system: Tyrosyl-tRNA synthetase, putative (Trypanosoma cruzi (strain CL Brener))
class name: upper range
--
compound: CN(C)C[C@H]1OC[C@@H]2CCN(C(=O)c3cccn3C)C[C@@H]21
target or test system: Tyrosyl-tRNA synthetase, putative (Trypanosoma cruzi (strain CL Brener))
class name: upper range
--
compound: O=C(C1=CCCC1)N1CCO[C@H]2[C@@H](OCC3CC3)CC[C@@H]21
target or test system: Tyrosyl-tRNA synthetase, putative (Trypanosoma cruzi (strain CL Brener))
class name: middle range
--
compound: Cn1c(C(F)(F)F)nn(CCNC(=O)c2cnc3ccccc3n2)c1=O
target or test system: Tyrosyl-tRNA synthetase, putative (Trypanosoma cruzi (strain CL Brener))
class name: middle range
--
compound: O=C(Cc1ccsc1)N1C[C@@H]2CN(Cc3ccoc3)CCO[C@@H]2C1
target or test system: Tyrosyl-tRNA synthetase, putative (Trypanosoma cruzi (strain CL Brener))
class name: lower range
--
compound: COc1ccc(CN2CCn3cc(CN4CCCCC4)nc3C2)cc1
target or test system: Tyrosyl-tRNA synthetase, putative (Trypanosoma cruzi (strain CL Brener))
class name: middle range
--
compound: CCOCCCNC(=O)c1cc(C(C)C)nc(N2CCCCCC2)n1
target or test system: Tyrosyl-tRNA synthetase, putative (Trypanosoma cruzi (strain CL Brener))
class name: upper range
--
compound: COc1ccc(Cl)cc1NCC(=O)NCCNc1cnccn1
target or test system: Tyrosyl-tRNA synthetase, putative (Trypanosoma cruzi (strain CL Brener))
class name: middle range
--
compound: Cc1cnc(CN2CCOC(Cn3nc(C)nc3C)C2)cn1 (configuration not stated)
target or test system: Tyrosyl-tRNA synthetase, putative (Trypanosoma cruzi (strain CL Brener))
class name: upper range
--
compound: CC(CN1CCCC1)C(=O)N1CCC(c2nccn2CC2CC2)CC1 (configuration not stated)
target or test system: Tyrosyl-tRNA synthetase, putative (Trypanosoma cruzi (strain CL Brener))
class name: upper range
